- System: NCI-H727;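 also: growth inhibition of human NCI-H727 cells, read out with a cell viability assay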
- assay_remarks: cells
- Assay type: functional, cell-based
- settings: Homo sapiens
- Description: SANGER: Inhibition of human NCI-H727 cell growth in a cell viability assay.
readout: IC50

Query: Identify IC50 associated with the compound "CN(C)CCOc1ccc(-c2nc(-c3ccncc3)c(-c3ccc4c(c3)CC/C4=N\O)[nH]2)cc1"
Result: > 5 µM

Query: Identify IC50 associated with the compound "COc1ccc(-c2cc3nccn3c(Nc3ncccc3C(N)=O)n2)cc1OC"
Result: 6.15 µM

Query: Identify IC50 associated with the compound "CC1=C(/C=C/C(C)=C/C=C/C(C)=C/C(=O)O)C(C)(C)CCC1"
Result: > 10 µM

Query: Identify IC50 associated with the compound "O=S(=O)(O)c1ccc2cc(/N=N/c3cc(S(=O)(=O)O)c4cccnc4c3O)ccc2c1"
Result: > 16 µM

---

- Test system: LB2518-MEL;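 also: growth inhibition of human LB2518-MEL cells, measured with a cell viability assay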
- assay_remarks: cells
- Type: functional, cell-based
- settings: Homo sapiens
- Description: SANGER: Inhibition of human LB2518-MEL cell growth in a cell viability assay.
readout: IC50

Query: Identify IC50 associated with the molecule COc1cc(N2CCC(N3CCN(C)CC3)CC2)ccc1Nc1ncc(Cl)c(Nc2ccccc2S(=O)(=O)C(C)C)n1 [TAE-684]
Result: > 2000 nM

Query: Identify IC50 associated with the molecule Nc1ccccc1NC(=O)c1ccc(CNC(=O)OCc2cccnc2)cc1 [ENTINOSTAT]
Result: 933 nM

Query: Identify IC50 associated with the molecule NC(=O)Nc1cc(-c2cccc(F)c2)sc1C(=O)N[C@H]1CCCNC1 [AZD-7762]
Result: > 2000 nM

Query: Identify IC50 associated with the molecule "COc1ccc(-c2cc3nccn3c(Nc3ncccc3C(N)=O)n2)cc1OC"
Result: > 8000 nM

Query: Identify IC50 associated with the molecule CCCCCCCCCCCC1=C(O)C(=O)C=C(O)C1=O [EMBELIN]
Result: > 32000 nM

Query: Identify IC50 associated with the molecule C=CC(=O)N1CCCC(Nc2nc(Nc3ccc(N(C)C(=O)CC)cc3)nc3[nH]cnc23)C1 (centres undefined)
Result: > 10200 nM

Query: Identify IC50 associated with the molecule C/C(=C\c1csc(C)n1)[C@@H]1C[C@@H]2O[C@]2(C)CCC[C@H](C)[C@H](O)[C@@H](C)C(=O)C(C)(C)[C@@H](O)CC(=O)O1 [PATUPILONE]
Result: 17.6 nM

Query: Identify IC50 associated with the molecule CS(=O)(=O)N1CCN(Cc2cc3nc(-c4cccc5[nH]ncc45)nc(N4CCOCC4)c3s2)CC1 [PICTILISIB]
Result: > 4000 nM

Query: Identify IC50 associated with the molecule CC1=C(/C=C/C(C)=C/C=C/C(C)=C/C(=O)O)C(C)(C)CCC1 [TRETINOIN]
Result: > 10000 nM

---

- System: A4-Fuk;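 also: growth inhibition of A4-Fuk cells, read out by a cell viability assay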
- assay_remarks: cells
- Format: functional, cell-based, Homo sapiens
- settings: Homo sapiens, A4-Fuk
- Description: SANGER: Inhibition of human A4-Fuk cell growth in a cell viability assay.
readout: IC50

Query: Identify IC50 associated with the compound "NC(=O)c1ccc(N(C(N)=O)c2c(F)cccc2F)nc1-c1ccc(F)cc1F"
Result: > 2 µM

Query: Identify IC50 associated with the compound "Cc1cc(N2CCOCC2)cc2[nH]c(-c3c(NC[C@@H](O)c4cccc(Cl)c4)cc[nH]c3=O)nc12"
Result: 0.0578 µM

Query: Identify IC50 associated with the compound "NC(=O)c1cccc(-c2cc(Nc3ccc(OC(F)(F)F)cc3)ncn2)c1"
Result: > 1.28 µM

Query: Identify IC50 associated with the compound "CN(C)CCOc1ccc(-c2nc(-c3ccncc3)c(-c3ccc4c(c3)CC/C4=N\O)[nH]2)cc1"
Result: > 5 µM

Query: Identify IC50 associated with the compound C=CC(=O)N1CCCC(Nc2nc(Nc3ccc(N(C)C(=O)CC)cc3)nc3[nH]cnc23)C1 (centres undefined)
Result: > 10.2 µM

Query: Identify IC50 associated with the compound "O=C1NC(=O)c2c1c(-c1ccccc1Cl)cc1[nH]c3ccc(O)cc3c21"
Result: > 2 µM

Query: Identify IC50 associated with the compound "NC1(c2ccc(-c3nc4ccn5c(=O)[nH]nc5c4cc3-c3ccccc3)cc2)CCC1"
Result: 0.469 µM

Query: Identify IC50 associated with the compound "C[C@@H](Oc1cc(-c2cnn(C3CCNCC3)c2)cnc1N)c1c(Cl)ccc(F)c1Cl"
Result: > 2 µM

Query: Identify IC50 associated with the compound "NC(=O)Nc1cc(-c2cccc(F)c2)sc1C(=O)N[C@H]1CCCNC1"
Result: 0.0749 µM

Data provenance: ChEMBL document CHEMBL1201861
